Measured IC50 by item
Target: SARS-CoV-2 Spike-Fc, Epsilon (B1429) variant (SARS-CoV-2), P0DTC2
Kindly answer with a numeric value in nM, unit omitted.

• EQAKTFLDKFNHEAEDLFLWRALWRLWRSLWRLLWK (modifications not checked) [Seq33 (LNCOV-18)] = 31.4

Specify IC50 for KTFLDKFNHEAEDLFPGPKWSAFLKEQSTLAQMYG (modifications not checked) [Seq28 (LNCOV-20)] and stop. 28.8

Source listed as patent US20230304010A1.
